Can you tell me z-score for the items I'm about to list?
assay: basal HepG2 mitochondrial membrane potential changes, profiling panel, cell-based, JC-1 fluorescence, 24 h, 100 nL compound (AID 1167); details: higher = more signal; further: test concentration not given here
// keep it numeric: no unit symbol after the value

Given the compound CN1C(=O)C2C=CC(C(O)c3cccs3)N(N(c3ccccc3)c3ccccc3)C2C1=O (centres undefined) , what is its reported z-score?
0.27

Would you kindly repeat that for O=C1N(Cc2ccccc2)c2ccccc2C[C@@]12N=C(c1ccc(OCCCO)cc1)O[C@H]2c1ccccc1 ?
-0.237

Thanks! And CCCCCCc1nc(-c2ccc(OC)nc2)c(C)c2c1[Si](C(C)C)(C(C)C)OC2 ?
0.103

Same read-out for COc1c(C)cc(-c2nc(-c3ccccc3)c3c(c2C)CO[Si]3(C(C)C)C(C)C)cc1C ?
-0.175

And CCN1C(=O)C2CC(=O)C3C(CN(S(=O)(=O)c4ccc(C)cc4)C3c3ccc(C)cc3)C2C1=O (centres undefined) ?
-0.167

Please answer likewise for Cc1ccc(S(=O)(=O)N2[C@@H](c3ccccc3)C(C(=O)O)=CC[C@H]2c2ccc(F)cc2)cc1
-0.699

Try this compound next: O=C1OCCC/C=C\[C@H]2OC34C=CCN(Cc5ccccc5)C(=O)[C@H]3N(CCO)C(=O)[C@@H]4C12 (some centres undefined)
1.03

// query: C=C(CCCC)C(=O)CC[C@@H](OC(C)=O)c1ccc(OCCO)cc1
-0.338

Another compound: COC(=O)[C@H](Cc1ccccc1)N1CC(C)(OC)O[C@@H](Cc2ccccc2)[C@H]1/C=C/C1CC1 (some centres undefined)
0.208

* * *

assay: CREB reporter modulators without forskolin, primary screen, cell-based, PC12, CRE-LacZ reporter, unstimulated (AID 1145); conditions: no forskolin, luminescence, 4.5 h, higher = more signal, called active from +8 up or from −8 down
The source made the active and inactive calls.
assay_metric: z-score

Please give the measured z-score for this compound: COC(=O)[C@@]1(Cc2ccc(F)cc2)[C@H]2c3cc(C(=O)N4CCCC4)n(C[C@H](O)CO)c3C[C@H]2CN1C(=O)c1ccccc1
0.0075 (inactive)

Consider next the compound C=C(C)C1CN([C@H](CO)c2ccccc2)C(=O)/C1=C\c1ccccc1 (some centres not stated) in the same way.
2.04 (inactive)

Similarly, [N-]=[N+]=NCc1ccccc1[C@H]1OC(c2ccc(OCCCO)cc2)=N[C@@]1(Cc1ccccc1N=[N+]=[N-])C(=O)O ?
-0.137 (inactive)

Then what about the compound CC[C@@H](O[Si](C#C[Si](C(C)C)(C(C)C)C(C)C)(C(C)C)C(C)C)c1cn(Cc2cccc(Cl)c2)nn1 ?
-0.272 (inactive)

Next record, please: COCCOC(=O)N1C(=O)[C@@]2(c3cc(C#CC4=CCCCC4)ccc31)[C@H](c1ccc(O)cc1)N1[C@H](c3ccccc3)[C@H](c3ccccc3)OC(=O)[C@H]1[C@@H]2C(=O)N1CCc2cc(OC)c(OC)cc2C1
-0.375 (inactive)

Subsequent entry: [N-]=[N+]=NCc1ccccc1C[C@]1(C(=O)N2CCCCC2)COC(c2ccc(OCCCO)cc2)=N1
1.93 (inactive)

Repeat for the following compound: O=C/C=C/c1ccc(-c2ccccc2)cc1
2.11 (inactive)

* * *

test: P. aeruginosa biofilm formation inhibitors, primary screen, PAO1 strain, BacTiter-Glo luminescence, LB-PBS (AID 1144); details: 12 h, higher = more signal
Threshold check on z-score: at or above 0.2 gives True, strictly below gives False.

Confirm if z-score reported for the molecule CC[C@@H](O[Si](C#C[Si](C(C)C)(C(C)C)C(C)C)(C(C)C)C(C)C)c1cn([C@H](CO)Cc2ccccc2)nn1 is 0.2 or above.
False

Moving on to the next molecule: COCCCNC(=O)[C@@]1(Cc2ccccc2I)c2ccccc2C(=O)N(Cc2ccccc2OC)[C@H]1c1ccc(CO)cc1
True

Follow-up entry: CCOC(=O)C[C@H]1[C@H](OC(=O)c2cc3ccccc3oc2=O)[C@@H](NC(=O)c2ccc(-c3ccccc3)cc2)c2cc(OCCCO)ccc2N1C(=O)Cc1ccc(OC)cc1
False

Also check COCCCNC(=O)[C@]1(Cc2ccccc2N=[N+]=[N-])N=C(c2ccc(OCCCO)cc2)O[C@@H]1c1ccccc1
True

Record: C=CCC(OC(C)=O)[C@@H]1[C@@H](N(Cc2cccc3ccccc23)C(=O)c2ccc(C)cc2)c2cc(OCCCO)ccc2N1C(=O)Cc1ccc2ccccc2c1 (some centres undefined)
False

Try COC(=O)[C@@]1(Cc2ccc(F)cc2)[C@@H]2C(=CC(=O)[C@H]2CC(=O)C(=O)N2CCCC2)CN1C(=O)c1ccccc1 next.
False

Could you do the same for [N-]=[N+]=NCc1ccccc1[C@H]1OC(c2ccc(OCCCO)cc2)=N[C@@]1(Cc1ccccc1N=[N+]=[N-])C(=O)O , please?
False

Now try C[N+](C)(C)CCCC[C@@H]1NC(=O)[C@H]2C[C@@H](C(=O)NCCCCCN)[C@@H](c3ccc(O)cc3)N2C1=O .
True

// query: CC(=O)NCCCC[C@@H]1NC(=O)[C@H]2C[C@@H](C(=O)NCCCCCN)[C@@H](c3ccc(O)cc3)N2C1=O
True

Further, for COC(=O)[C@@]1(Cc2ccccc2)[C@H]2c3cc(C(=O)N(C)C)n(Cc4ccc(Cl)c(C(F)(F)F)c4)c3C[C@H]2CN1C(=O)c1ccccc1 ?
True

Note, next up: O=C1N(Cc2ccccc2)c2ccccc2C[C@@]12N=C(c1ccc(OCCCO)cc1)O[C@H]2c1ccccc1
False

Here is the next molecule: O=C1N(Cc2ccccc2)Cc2ccccc2C[C@@]12COC(c1ccc(OCCCO)cc1)=N2
True

Try COc1ccc([Si](C)(C)[C@@H]2[C@@H](CC(=O)N3CCC[C@H]3CO)O[C@]3(C(=O)N(Cc4cccc(N5C(=O)c6cccc7cccc5c67)c4)c4ccccc43)[C@H]2C)cc1 next.
False

* * *

system: Noggin (protein binding on small-molecule microarray); assay: Noggin binders on small-molecule microarray, primary screen, biochemical, 635/667 nm fluorescence (AID 1095); settings: 635 nm fluorescence, higher = more signal;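 further: score merges 667 nm feature fluorescence with signal to noise over triplicate slides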
Could you please report measured composite z-score for the items listed next?
Write no unit; give the number alone.

Consider the molecule CC(C)(C)OC(=O)CC[C@@]1(C(N)=O)N=C(c2ccc(OCCCO)cc2)O[C@@H]1c1ccccc1CN=[N+]=[N-] and give its measured composite z-score.
0.324

Cool, now C=C(COC)C(=O)CC[C@H](OC(C)=O)c1ccc(CO)o1
1.31

What do we get for C=CCNC(=O)[C@@H]1[C@H]2C(=O)O[C@H](c3ccccc3)[C@H](c3ccccc3)N2[C@H](c2ccc(OCCO)cc2)[C@@]12C(=O)Nc1ccc(C#CCNC(N)=O)cc12 ?
0.216

Next: C=CCN1C(=O)[C@]2(O[C@H](CCO)[C@@H]([Si](C)(C)c3ccc(OC)cc3)[C@@H]2C)c2cc(N3C(=O)c4ccccc4Oc4ccccc43)ccc21
0.458

Next record, please: COc1ccc([Si](C)(C)[C@H]2[C@H](CC(=O)N(CCO)Cc3ccccc3)O[C@@]3(C(=O)N(Cc4cccc(N5CCCCC5=O)c4)c4ccccc43)[C@@H]2C)cc1
0.659

Please answer likewise for O=C1O[C@H](c2ccccc2)[C@H](c2ccccc2)N2[C@H]1[C@@H](C(=O)N1CCN(c3ncccn3)CC1)[C@]1(C(=O)Nc3ccc(C#CC4(O)CCCCCC4)cc31)[C@H]2c1ccc(O)cc1
1.2

* * *

experiment: basal MM1S mitochondrial membrane potential changes, profiling panel, cell-based, JC-1 fluorescence, 24 h, 100 nL compound (AID 1170); conditions: higher = more signal; further: test concentration not given here
Parameter threshold = -0.9. Response is yes (1) when z-score meets or exceeds it, else no (0).

Threshold query (z-score >= -0.9) on C=C[C@H](C)[C@@H](OC(=O)Nc1ccc(SC)cc1)c1ccc(OCCO)cc1
yes (1)

Also, CN(C)CCCCNC(=O)[C@H]1C[C@H]2C(=O)N[C@@H](CCCCN(C)C)C(=O)N2[C@H]1c1ccc(O)cc1 please.
yes (1)

Next: C=C(COC)/C(=C/C[C@@H](OC(=O)c1ccncc1)c1ccccc1OCCO)c1cnc2ccccc2c1
yes (1)

Field entry: COC(=O)[C@@]1(Cc2ccc(OC)cc2)[C@@H]2[C@@H](CC(=O)[C@H]2CC(=O)C(=O)N(C)C)CN1C(=O)c1ccccc1
no (0)

Proceed to [N-]=[N+]=NCc1ccccc1[C@H]1OC(c2ccc(OCCCO)cc2)=N[C@@]1(Cc1ccccc1N=[N+]=[N-])C(=O)N1CCOCC1
no (0)

Then what about the compound O=C/C=C/c1ccc(-c2ccccc2)cc1 ?
no (0)

Proceed to [N-]=[N+]=Nc1ccccc1C[C@]1(C(N)=O)COC(c2ccc(OCCCO)cc2)=N1
no (0)

What do you have for C=CCNC(=O)[C@@H]1[C@H]2C(=O)O[C@H](c3ccccc3)[C@H](c3ccccc3)N2[C@H](c2ccc(OCCO)cc2)[C@@]12C(=O)Nc1ccc(C#CC3=CCCCC3)cc12 ?
no (0)
